Target entity: T1, Prp2 (UniProt P20095 1-876)
T1 sequence: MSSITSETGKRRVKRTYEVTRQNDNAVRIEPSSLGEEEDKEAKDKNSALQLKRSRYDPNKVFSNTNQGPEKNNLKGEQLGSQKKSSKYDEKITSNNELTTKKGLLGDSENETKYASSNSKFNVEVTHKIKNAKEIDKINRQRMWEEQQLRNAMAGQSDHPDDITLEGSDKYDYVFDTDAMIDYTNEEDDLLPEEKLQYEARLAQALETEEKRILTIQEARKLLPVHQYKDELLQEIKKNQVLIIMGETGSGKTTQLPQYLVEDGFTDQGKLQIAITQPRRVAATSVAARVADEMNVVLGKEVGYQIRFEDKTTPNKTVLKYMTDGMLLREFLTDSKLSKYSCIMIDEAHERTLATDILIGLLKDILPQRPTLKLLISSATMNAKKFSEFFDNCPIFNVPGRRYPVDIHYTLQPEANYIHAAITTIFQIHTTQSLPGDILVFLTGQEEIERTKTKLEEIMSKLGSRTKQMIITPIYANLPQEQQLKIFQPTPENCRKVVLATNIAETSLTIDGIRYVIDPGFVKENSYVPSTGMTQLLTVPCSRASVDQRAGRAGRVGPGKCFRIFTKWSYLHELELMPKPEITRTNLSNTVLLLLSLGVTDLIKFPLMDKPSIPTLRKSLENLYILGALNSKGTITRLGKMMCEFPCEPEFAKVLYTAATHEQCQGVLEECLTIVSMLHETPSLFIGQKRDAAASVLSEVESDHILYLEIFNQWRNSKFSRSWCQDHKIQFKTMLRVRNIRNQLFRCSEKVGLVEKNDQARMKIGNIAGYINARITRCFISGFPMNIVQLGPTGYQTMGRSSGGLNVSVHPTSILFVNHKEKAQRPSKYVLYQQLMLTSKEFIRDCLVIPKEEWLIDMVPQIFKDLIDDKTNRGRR
Measurement protocol: fluorescence anisotropy
pKd: −log10 of the molar value.
Value type: pKd

INSERT INTO assay_data (binder, value_type, result_number) VALUES
  ('GGCCGCGAGAAAAAAAAAAAAAAA (ssRNA) [24-nt ssRNA]', 'pKd', 7.28);

Source of measurements: paper PMC4285774
